The values you see were collected from patent US6465429B1.

Exercise: state measured MIC for each of the molecules provided.
- Tested on: E. cloacae
- assay: Synergy of peptide and antibiotic, MIC and FIC (checkerboard)
- Type: cell-based
- stated_conditions: Enterobacter cloacae, E. cloacae isolate 15, strain B5546; agent alone
- Experimental: FICs are performed by checkerboard titrations of peptides in one dimension of a microtiter plate, and of antibiotics in the other dimension, for example. The FIC is calculated by looking at the impact of one antibiotic on the MIC of the other and vice versa. […] Preferably, an FIC of less than 0.5 is obtained for synergism. As used herein, FIC can be determined as follows: [formula] Synergism is identified as an FIC of about ≦0.5.
Number only, in µg/mL; omit the unit.

Query block: Data request, read-out MIC, for `C[C@@H](O)[C@H]1C(=O)N2C(C(=O)O)=C(SCCN=CN)C[C@H]12`
Result block: 2

Query block: Data request, read-out MIC, for `CC(C)(O/N=C(\C(=O)N[C@@H]1C(=O)N2C(C(=O)[O-])=C(C[n+]3ccccc3)CS[C@H]12)c1csc(N)n1)C(=O)O`
Result block: 2

Query block: Data request, read-out MIC, for `CCN1CCN(C(=O)N[C@@H](C(=O)N[C@@H]2C(=O)N3[C@@H]2SC(C)(C)[C@@H]3C(=O)O)c2ccccc2)C(=O)C1=O`
Result block: 8

Query block: Data request, read-out MIC, for `NC[C@H]1O[C@H](O[C@H]2[C@H](O)[C@@H](O[C@H]3O[C@H](CO)[C@@H](O)[C@H](N)[C@H]3O)[C@H](N)C[C@@H]2N)[C@H](N)C[C@@H]1O`
Result block: 2
